- TEST SUMMARY: Tissue distribution of radioactivity after intravenous injection
- Type: in vivo, BALB/C mice
- CONDITION: mouse, liver, iv; 24 h, i.v.; read-out: Percent of Injected Dose per Gram, Liver
For each of the compounds below, state its tissue uptake at 24 h.
One number for each entry, in %ID/g.

# per-item lookup of tissue uptake at 24 h; items listed below
1. O=[N+]([O-])c1nccn1[C@@H]1O[C@H](CI)[C@@H](O)[C@@H]1O [IAZA]
2. O=[N+]([O-])c1nccn1[C@@H]1O[C@H](CI)[C@H](O)[C@H](O)[C@H]1O [IAZG]

[0.098, 0.08]

* * *

- TEST SUMMARY: Tissue distribution of radioactivity after intravenous injection
- Format: in vivo, BALB/C mice
- CONDITION: mouse, bone, iv; 0.25 h, i.v.; read-out: Percent of Injected Dose per Gram, Bone
METRIC: tissue uptake at 0.25 h (%ID/g)
One number for each entry, in %ID/g.

Any idea what tissue uptake at 0.25 h was measured for "O=[N+]([O-])c1nccn1[C@@H]1O[C@H](CI)[C@@H](O)[C@@H]1O" ?
1.31

* * *

- TEST SUMMARY: Tissue distribution of radioactivity after intravenous injection
- Format: in vivo, BALB/C mice
- CONDITION: mouse, heart, iv; 8 h, i.v.; read-out: Percent of Injected Dose per Gram, Heart
- Source text: Tables 1 and 2 show the percent of injected IAZG and IAZA respectively per gram of wet tissue for selected tissues excised from BALB/C mice bearing EMT-6 tumors. This tumor model is known to have a high hypoxic fraction (0.33) (16). […] Hepatobiliary excretion may play a role in blood clearance as evidenced by elevated liver radioactivity and the appearance of activity in the intestine. […] This supposition is supported by the persistence of liver radioactivity at longer time periods. […]
METRIC: tissue uptake at 8 h (%ID/g)
Give bare numbers, in %ID/g.

Any idea what tissue uptake at 8 h was measured for "O=[N+]([O-])c1nccn1[C@@H]1O[C@H](CI)[C@@H](O)[C@@H]1O" ?
0.22

* * *

- TEST SUMMARY: Tissue distribution of radioactivity after intravenous injection
- Type: in vivo, BALB/C mice
- CONDITION: mouse, tumor, iv; 24 h, i.v.; read-out: Percent of Injected Dose per Gram, Tumor
- Excerpt: Tables 1 and 2 show the percent of injected IAZG and IAZA respectively per gram of wet tissue for selected tissues excised from BALB/C mice bearing EMT-6 tumors. This tumor model is known to have a high hypoxic fraction (0.33) (16). […] Hepatobiliary excretion may play a role in blood clearance as evidenced by elevated liver radioactivity and the appearance of activity in the intestine. […] This supposition is supported by the persistence of liver radioactivity at longer time periods. […]
METRIC: tissue uptake at 24 h (%ID/g)
Give bare numbers, in %ID/g.

Any idea what tissue uptake at 24 h was measured for "O=[N+]([O-])c1nccn1[C@@H]1O[C@H](CI)[C@@H](O)[C@@H]1O" ?
0.206

Next:
Any idea what tissue uptake at 24 h was measured for "O=[N+]([O-])c1nccn1[C@@H]1O[C@H](CI)[C@H](O)[C@H](O)[C@H]1O" ?
0.08

* * *

- TEST SUMMARY: Tissue distribution of radioactivity after intravenous injection
- Format: in vivo, BALB/C mice
- CONDITION: mouse, intestine, iv; 24 h, i.v.; read-out: Percent of Injected Dose per Gram, Intestine
- Description: Tables 1 and 2 show the percent of injected IAZG and IAZA respectively per gram of wet tissue for selected tissues excised from BALB/C mice bearing EMT-6 tumors. This tumor model is known to have a high hypoxic fraction (0.33) (16). […] Hepatobiliary excretion may play a role in blood clearance as evidenced by elevated liver radioactivity and the appearance of activity in the intestine. […] This supposition is supported by the persistence of liver radioactivity at longer time periods. […]
For each of the compounds below, state its tissue uptake at 24 h.
Numbers only, in %ID/g.

Any idea what tissue uptake at 24 h was measured for "O=[N+]([O-])c1nccn1[C@@H]1O[C@H](CI)[C@@H](O)[C@@H]1O" ?
0.041

Query compound follows.
Any idea what tissue uptake at 24 h was measured for "O=[N+]([O-])c1nccn1[C@@H]1O[C@H](CI)[C@H](O)[C@H](O)[C@H]1O" ?
0.05
